Listed here are variants together with their documented self-cleavage.
B1: LINE1-full (parent)
chain: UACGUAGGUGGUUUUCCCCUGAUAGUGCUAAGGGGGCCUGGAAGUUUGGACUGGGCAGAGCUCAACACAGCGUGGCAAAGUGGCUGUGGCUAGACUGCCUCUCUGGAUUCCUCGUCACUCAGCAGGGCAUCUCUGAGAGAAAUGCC

Variants of: B1
Test: self-cleavage, relative activity (ratio to wild type); higher = more cleavage; in vitro, sequencing; the parent is a self-cleaving ribozyme
Format: numeric value only, no unit, no commentary.

U9A U15A	1.07

Request: # input variant: A43C A77U ; wanted: its self-cleavage
Response: 1.39

Request: Item G60A C146A has what recorded self-cleavage?
Response: 0.02

Request: Looking for the measured self-cleavage of C116A U119C , can you help?
Response: 1.27

Request: Suppose we examine the variant C61A A94G ; what self-cleavage value has been reported?
Response: 0.04

Request: Could you share which self-cleavage value was measured for C19U A22U ?
Response: 1.11

Request: What value of self-cleavage has been recorded for this entry: U23A U130C
Response: 1.44
